target.or.test.system: EGFR Del19/C797S (Homo sapiens, UniProt P00533, C797S/DEL746-750)
Sequence (P00533 with tags, fused parts or gaps DEL746-750/C797S): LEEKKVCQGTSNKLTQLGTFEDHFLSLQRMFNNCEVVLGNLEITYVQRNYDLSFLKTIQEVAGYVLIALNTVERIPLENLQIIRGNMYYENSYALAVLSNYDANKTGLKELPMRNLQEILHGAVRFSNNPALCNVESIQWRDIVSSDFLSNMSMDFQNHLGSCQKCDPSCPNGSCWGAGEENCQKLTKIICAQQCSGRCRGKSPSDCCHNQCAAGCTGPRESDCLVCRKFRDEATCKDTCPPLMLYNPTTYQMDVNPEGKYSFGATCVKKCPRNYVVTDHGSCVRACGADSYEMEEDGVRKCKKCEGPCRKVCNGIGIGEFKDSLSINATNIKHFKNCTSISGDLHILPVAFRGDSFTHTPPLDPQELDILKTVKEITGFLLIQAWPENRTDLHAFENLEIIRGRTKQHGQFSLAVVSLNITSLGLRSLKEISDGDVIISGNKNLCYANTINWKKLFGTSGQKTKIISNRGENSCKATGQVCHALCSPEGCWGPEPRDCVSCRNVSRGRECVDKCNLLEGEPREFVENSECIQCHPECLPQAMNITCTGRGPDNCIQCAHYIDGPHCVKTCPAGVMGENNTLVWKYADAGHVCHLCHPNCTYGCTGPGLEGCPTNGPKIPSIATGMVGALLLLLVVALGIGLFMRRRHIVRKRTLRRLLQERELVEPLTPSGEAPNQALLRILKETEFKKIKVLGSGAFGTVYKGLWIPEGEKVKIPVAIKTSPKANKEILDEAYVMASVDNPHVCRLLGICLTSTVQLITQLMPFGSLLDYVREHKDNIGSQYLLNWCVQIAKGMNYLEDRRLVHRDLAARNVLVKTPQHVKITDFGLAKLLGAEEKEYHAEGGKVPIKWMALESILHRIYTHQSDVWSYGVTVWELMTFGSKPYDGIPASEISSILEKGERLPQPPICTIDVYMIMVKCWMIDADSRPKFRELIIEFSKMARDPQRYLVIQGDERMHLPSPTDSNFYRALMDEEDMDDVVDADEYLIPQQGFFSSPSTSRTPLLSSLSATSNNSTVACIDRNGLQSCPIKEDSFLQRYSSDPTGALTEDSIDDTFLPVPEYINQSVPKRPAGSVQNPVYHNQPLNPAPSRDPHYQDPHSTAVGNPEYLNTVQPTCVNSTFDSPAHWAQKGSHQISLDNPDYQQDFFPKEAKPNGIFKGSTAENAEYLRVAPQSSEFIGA
test: Biochemical EGFR kinase inhibition assay (Lance Ultra TR-FRET), double mutant del19/C797S
reported.conditions: Km ATP; read-out: IC50 Del19/C797S (nM), Km ATP
Would you kindly list IC50 for each of these compounds?

- compound: "O=S(=O)(C1CC1)n1cc(-c2nccc(Nc3cc(N4C[C@H]5C[C@@]5(CO)C4)c(C#Cc4cnn(C(F)(F)F)c4)cn3)n2)cn1 [Example 333]"
  target.or.test.system: "EGFR Del19/C797S (Homo sapiens, UniProt P00533, C797S/DEL746-750)"
  experimental.result: "133 nM"

Working through the 2 compounds below one at a time, give IC50 for each.
1. CN(C)CCC1CCCN(c2cc(Nc3ccnc(-c4cnn(S(=O)(=O)C5CC5)c4)n3)ncc2C#Cc2cnn(CCF)c2)C1 (stereo not drawn) [Example 386]
2. CC1OCCC1C#Cc1cnc(Nc2ccnc(-c3cnn(S(=O)(=O)C4CC4)c3)n2)cc1N1CCC(C)(O)CC1 (stereo not drawn) [Example 432]

OUT:
["0.9 nM", "3.1 nM"]

----------
target.or.test.system: EGFR Del19/T790M/C797S (Homo sapiens, UniProt P00533, C797S/DEL746-750/T790M)
Sequence (P00533 with tags, fused parts or gaps DEL746-750/T790M/C797S): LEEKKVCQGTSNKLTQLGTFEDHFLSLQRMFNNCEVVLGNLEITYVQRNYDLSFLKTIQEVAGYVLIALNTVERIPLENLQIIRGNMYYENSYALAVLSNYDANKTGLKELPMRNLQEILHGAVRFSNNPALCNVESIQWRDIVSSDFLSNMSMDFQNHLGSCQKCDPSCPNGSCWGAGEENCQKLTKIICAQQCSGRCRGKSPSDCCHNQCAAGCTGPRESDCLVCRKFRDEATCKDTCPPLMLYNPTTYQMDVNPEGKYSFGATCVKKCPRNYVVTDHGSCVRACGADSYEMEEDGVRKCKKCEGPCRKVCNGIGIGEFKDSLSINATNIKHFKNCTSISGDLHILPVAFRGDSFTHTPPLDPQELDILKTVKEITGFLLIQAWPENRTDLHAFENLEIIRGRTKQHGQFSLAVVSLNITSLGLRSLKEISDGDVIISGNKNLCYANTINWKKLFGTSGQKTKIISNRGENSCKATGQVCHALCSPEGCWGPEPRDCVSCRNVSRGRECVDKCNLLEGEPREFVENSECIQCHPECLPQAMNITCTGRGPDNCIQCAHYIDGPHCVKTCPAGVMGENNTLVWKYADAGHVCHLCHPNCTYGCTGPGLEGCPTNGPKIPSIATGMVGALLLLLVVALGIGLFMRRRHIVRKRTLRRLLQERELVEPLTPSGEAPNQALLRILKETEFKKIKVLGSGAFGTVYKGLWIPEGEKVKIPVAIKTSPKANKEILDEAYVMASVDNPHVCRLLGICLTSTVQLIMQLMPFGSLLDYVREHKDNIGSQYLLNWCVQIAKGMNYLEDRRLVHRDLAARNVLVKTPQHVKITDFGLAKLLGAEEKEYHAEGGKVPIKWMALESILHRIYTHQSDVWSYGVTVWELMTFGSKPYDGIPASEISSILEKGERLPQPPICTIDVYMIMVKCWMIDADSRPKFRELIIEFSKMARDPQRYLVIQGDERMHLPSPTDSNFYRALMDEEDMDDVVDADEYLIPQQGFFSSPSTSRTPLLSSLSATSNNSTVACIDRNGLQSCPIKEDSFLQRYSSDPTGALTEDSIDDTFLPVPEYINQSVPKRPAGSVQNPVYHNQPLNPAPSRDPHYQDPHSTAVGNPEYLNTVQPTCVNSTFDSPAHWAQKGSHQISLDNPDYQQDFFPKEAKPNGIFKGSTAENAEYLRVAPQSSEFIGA
test: Biochemical EGFR kinase inhibition assay (Lance Ultra TR-FRET), triple mutant del19/T790M/C797S
reported.conditions: IC50 Del19/T790M/C797S (nM), 100 μM ATP
Would you kindly list IC50 for each of these compounds?
Answers are plain numbers, in nM.

- compound: "CN1CCC2(CC1)CCN(c1cc(Nc3ccnc(-c4cnn(S(=O)(=O)C5CC5)c4)n3)ncc1C#Cc1cnn(C)c1)CC2 [Example 318]"
  experimental.result: 0.3

Working through the 2 compounds below one at a time, give IC50 for each.
1. CC1(C#Cc2cnc(Nc3ccnc(-c4cnn(S(=O)(=O)C5CC5)c4)n3)cc2N[C@H]2CC[C@@H](CO)CC2)CC1 [Example 402]
2. Cn1cc(C#Cc2cnc(Nc3ccnc(-c4cnn(S(=O)(=O)C5CC5)c4)n3)cc2N2CCC(NCC3CC3)CC2)cn1 [Example 124]

OUT:
2.6
3

IN: Look up and report measured IC50 for this entry: COCCNC1CCN(c2cc(Nc3ccnc(-c4cnn(S(=O)(=O)C5CC5)c4)n3)ncc2C#Cc2cnn(C)c2)CC1 [Example 132]
OUT: 1.3

----------
target.or.test.system: EGFR L858R/T790M/C797S (Homo sapiens, UniProt P00533, C797S/L858R/T790M)
Sequence (P00533 25-1210 T790M/C797S/L858R): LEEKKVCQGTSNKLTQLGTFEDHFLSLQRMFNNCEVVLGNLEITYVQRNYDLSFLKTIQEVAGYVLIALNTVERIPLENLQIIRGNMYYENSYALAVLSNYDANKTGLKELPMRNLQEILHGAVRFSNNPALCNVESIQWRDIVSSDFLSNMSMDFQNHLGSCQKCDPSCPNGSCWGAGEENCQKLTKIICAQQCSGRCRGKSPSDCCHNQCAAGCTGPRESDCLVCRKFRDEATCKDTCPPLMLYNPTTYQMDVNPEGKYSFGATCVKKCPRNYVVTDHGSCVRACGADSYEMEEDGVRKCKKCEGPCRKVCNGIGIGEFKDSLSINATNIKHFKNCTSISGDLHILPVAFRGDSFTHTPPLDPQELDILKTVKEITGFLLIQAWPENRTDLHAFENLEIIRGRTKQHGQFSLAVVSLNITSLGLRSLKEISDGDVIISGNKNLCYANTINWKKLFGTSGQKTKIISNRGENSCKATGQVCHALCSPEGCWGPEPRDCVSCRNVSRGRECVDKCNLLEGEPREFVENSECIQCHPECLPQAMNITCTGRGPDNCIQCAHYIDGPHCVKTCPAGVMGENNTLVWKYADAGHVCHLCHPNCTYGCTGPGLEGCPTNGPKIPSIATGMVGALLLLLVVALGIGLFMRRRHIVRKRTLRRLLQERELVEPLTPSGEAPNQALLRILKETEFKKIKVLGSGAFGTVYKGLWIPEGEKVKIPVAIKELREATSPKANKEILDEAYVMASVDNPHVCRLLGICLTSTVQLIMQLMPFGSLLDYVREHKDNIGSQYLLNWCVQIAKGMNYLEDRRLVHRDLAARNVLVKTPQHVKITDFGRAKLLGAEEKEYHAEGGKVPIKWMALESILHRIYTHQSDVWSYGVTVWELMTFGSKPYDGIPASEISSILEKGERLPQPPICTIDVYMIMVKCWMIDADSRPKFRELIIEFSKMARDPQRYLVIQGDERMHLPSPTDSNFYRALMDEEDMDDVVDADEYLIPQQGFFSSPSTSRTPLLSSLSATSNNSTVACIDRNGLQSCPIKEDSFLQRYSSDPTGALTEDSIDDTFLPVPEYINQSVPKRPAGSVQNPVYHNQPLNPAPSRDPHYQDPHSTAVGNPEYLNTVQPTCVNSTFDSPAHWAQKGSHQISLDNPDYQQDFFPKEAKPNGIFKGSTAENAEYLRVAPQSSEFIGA
test: Biochemical EGFR kinase inhibition assay (Lance Ultra TR-FRET), triple mutant L858R/T790M/C797S
reported.conditions: ATP at Km; read-out: IC50 L858R/T790M/C797S (nM), Km ATP
reported.property: log10(IC50) (log10 of the value in nM)
The base-10 logarithm of IC50, taken with IC50 in nM, is what appears here.

Study these solved cases before continuing.
- compound: "Cc1nc(C#Cc2cnc(Nc3ccnc(-c4cnn(S(=O)(=O)C5CC5)c4)n3)cc2NC(C)C)cs1 [Example 199]"
  target.or.test.system: "EGFR L858R/T790M/C797S (Homo sapiens, UniProt P00533, C797S/L858R/T790M)"
  log10(IC50): 0.53
- compound: "C=CC#Cc1cnc(Nc2ccnc(-c3cnn(S(=O)(=O)C4CC4)c3)n2)cc1N1CCC(C)(CO)CC1 [Example 277]"
  target.or.test.system: "EGFR L858R/T790M/C797S (Homo sapiens, UniProt P00533, C797S/L858R/T790M)"
  log10(IC50): -0.52
- compound: "CN(C)CCC1CCN(c2cc(Nc3ccnc(-c4cnn(S(=O)(=O)C5CC5)c4)n3)ncc2C#Cc2cnn(CC(F)F)c2)CC1 [Example 303]"
  target.or.test.system: "EGFR L858R/T790M/C797S (Homo sapiens, UniProt P00533, C797S/L858R/T790M)"
  log10(IC50): -1.00
- compound: "CC1(CO)CCN(c2cc(Nc3ccnc(-c4cnn(S(=O)(=O)C5CC5)c4)n3)ncc2C#CC2CCCCC2)CC1 [Example 252]"
  target.or.test.system: "EGFR L858R/T790M/C797S (Homo sapiens, UniProt P00533, C797S/L858R/T790M)"
  log10(IC50): 0.63
- compound: "O=S(=O)(C1CC1)n1cc(-c2nccc(Nc3cc(N[C@H]4CC[C@@H](O)CC4)c(C#Cc4ncc(CN5CCOCC5)cn4)cn3)n2)cn1 [Example 194]"
  target.or.test.system: "EGFR L858R/T790M/C797S (Homo sapiens, UniProt P00533, C797S/L858R/T790M)"
  log10(IC50): -0.70
- compound: "CC1(O)CCN(c2cc(Nc3ccnc(-c4cnn(S(=O)(=O)C5CC5)c4)n3)ncc2C#Cc2cccnc2)CC1 [Example 280]"
  target.or.test.system: "EGFR L858R/T790M/C797S (Homo sapiens, UniProt P00533, C797S/L858R/T790M)"
  log10(IC50): -0.40

// next item, log10(IC50) requested
IN: Look up and report measured log10(IC50) for this entry: CC1(CO)CCN(c2cc(Nc3ccnc(-c4cnn(S(=O)(=O)C5CC5)c4)n3)ncc2C#CC2(O)CCCCC2)CC1 [Example 175]
OUT: 0.56

----------
target.or.test.system: EGFR L858R/T790M/C797S (Homo sapiens, UniProt P00533, C797S/L858R/T790M)
test: Biochemical EGFR kinase inhibition assay (Lance Ultra TR-FRET), triple mutant L858R/T790M/C797S
reported.conditions: Km ATP; read-out: IC50 L858R/T790M/C797S (nM) Km ATP
Labelling field: enter 1 (yes) if recorded IC50 is less than 0.6 nM. Enter 0 (no) if it equals or exceeds that cut-off.

IN: Find out if reported IC50 for O=S(=O)(C1CC1)n1cc(-c2nccc(Nc3cc(N4CCCC(O)C4)c(C#Cc4cnn(C5CCOCC5)c4)cn3)n2)cn1 (stereo not shown) is less than 0.6 nM
OUT: 0 (no)

----------
target.or.test.system: EGFR Del19/C797S (Homo sapiens, UniProt P00533, C797S/DEL746-750)
test: Biochemical EGFR kinase inhibition assay (Lance Ultra TR-FRET), double mutant del19/C797S
reported.conditions: ATP at Km; read-out: IC50 Del19/C797S (nM), Km ATP
Protocol: Biochemical EGFR kinase assays were conducted using Lance Ultra time-resolved fluorescence resonance energy transfer (TR-FRET) technology from Perkin-Elmer. […] Each kinase reactions were incubated at room temperature for 1 hour and then stopped by the addition of 4 μL of stop solution (10 mM EDTA). […] After 60 minutes incubation at room temperature the LANCE signal was measured on an EnVision Multilabel Reader (Perkin-Elmer). […]
Structures can show the parent of a compound that is named as a salt.
Labelling field: enter satisfied if recorded IC50 is less than 4 nM. Enter not satisfied if it equals or exceeds that cut-off.

Reference set, count: 5
- compound: "O=S(=O)(C1CC1)n1cc(-c2nccc(Nc3cc(NC[C@H]4CC[C@H](O)CC4)c(C#Cc4cnn(C(F)F)c4)cn3)n2)cn1"
  qualitative.label: "not satisfied"
- compound: "C[C@]1(O)CC[C@@H](Nc2cc(Nc3ccnc(-c4cnn(S(=O)(=O)C5CC5)c4)n3)ncc2C#CCN2CCOCC2)CC1"
  qualitative.label: "not satisfied"
- compound: "CN(C)CC1(F)CCN(c2cc(Nc3ccnc(-c4cnn(S(=O)(=O)C5CC5)c4)n3)ncc2C#Cc2cnn(C)c2)CC1 [Example 293, formate]"
  qualitative.label: "satisfied"
- compound: "CC1(CO)CCN(c2cc(Nc3ccnc(-c4cnn(S(=O)(=O)C5CC5)c4)n3)ncc2C#Cc2ccc(CN3CCOCC3)s2)CC1"
  qualitative.label: "satisfied"
- compound: "Cc1cnc(C#Cc2cnc(Nc3ccnc(-c4cnn(S(=O)(=O)C5CC5)c4)n3)cc2N[C@@H]2CCC[C@H](O)C2)cn1"
  qualitative.label: "not satisfied"

IN: Find out if reported IC50 for CC(C)Nc1cc(Nc2ccnc(-c3cnn(S(=O)(=O)C4CC4)c3)n2)ncc1C#CCN1CCS(=O)(=O)CC1 is less than 4 nM
OUT: not satisfied

IN: Find out if reported IC50 for CC(C)(O)CC#Cc1cnc(Nc2ccnc(-c3cnn(S(=O)(=O)C4CC4)c3)n2)cc1N1CCC(C)(CO)CC1 is less than 4 nM
OUT: satisfied

IN: Find out if reported IC50 for Cn1cc(C#Cc2cnc(Nc3ccnc(Nc4ccccc4S(C)(=O)=O)n3)cc2N2CCC(C)(CO)CC2)cn1 is less than 4 nM
OUT: not satisfied

IN: Find out if reported IC50 for CC1(O)CCC(Nc2cc(Nc3ccnc(-c4cnn(S(=O)(=O)C5CC5)c4)n3)ncc2C#Cc2cnn(C3CC3(F)F)c2)CC1 (stereo not shown) is less than 4 nM
OUT: not satisfied

IN: Find out if reported IC50 for CC(C)(O)C1CCN(c2cc(Nc3ccnc(-c4cnn(S(=O)(=O)C5CC5)c4)n3)ncc2C#Cc2cnn(C(F)(F)F)c2)CC1 is less than 4 nM
OUT: not satisfied

IN: Find out if reported IC50 for CC1(CO)CCN(c2cc(Nc3ccnc(-c4cnn(S(=O)(=O)C5CC5)c4)n3)ncc2C#CC2(O)CCCCC2)CC1 is less than 4 nM
OUT: not satisfied
